Reported PC50 values follow for various compounds
# Test system: MIA PaCa-2
# assay details: Preferential cytotoxicity against human MIA PaCa-2 cells in nutrient-deprived medium measured after 24 hrs by WST-8 cell counting analysis
# Assay type: functional
Output spec: scalar in µM, unitless text.

Solved cases below.
# compound, PC50 / µM
data = [
    ("CC(C)=CCCC1=CC[C@H](C(=O)c2c(O)cccc2O)[C@@H](c2ccc(F)cc2)C1 (relative stereo)", 0.89),
    ("COc1ccc(C(=O)[C@H]2CC=C(CCC=C(C)C)C[C@@H]2c2ccccc2)c(O)c1 (relative stereo)", 59.3),
    ("COc1cc(O)c(C(=O)[C@H]2CC=C(CCC=C(C)C)C[C@@H]2c2ccc(Cl)cc2)c(O)c1 (relative stereo)", 3.02),
    ("COc1ccc([C@H]2CC(CCC=C(C)C)=CC[C@@H]2C(=O)c2c(O)cc(OC)cc2O)cc1 (relative stereo)", 1.93),
    ("COc1cc(O)c(C(=O)[C@H]2CC=C(CCC=C(C)C)C[C@@H]2c2ccccc2)c(O)c1", 2.76),
    ("COc1cc(O)c(C(=O)[C@H]2CC=C(CCC=C(C)C)C[C@@H]2c2cccc(F)c2F)c(O)c1 (relative stereo)", 1.01),
]

Then there is this compound:
Query: Form field - read-out: PC50; system: MIA PaCa-2; submitted item: CC(C)=CCCC1=CC[C@H](C(=O)c2c(O)cccc2O)[C@@H](c2ccccc2Cl)C1 (relative stereo)
Response: 1.08

----------
# System: PANC-1
# assay details: Preferential cytotoxicity against human PANC-1 cells in DMEM measured after 24 hrs by WST-8 cell counting analysis
# Type: functional, cell-based
# protocol conditions: PANC-1, 24 h
readout name: IC50 (µM)
Output spec: scalar in µM, unitless text.

Solved cases below.
# molecule, value reported
records = [
    ("COc1cc(O)c(C(=O)[C@H]2CC=C(CCC=C(C)C)C[C@@H]2c2ccccc2F)c(O)c1 (relative stereo)", 28.5),
    ("COc1cccc(OC)c1C(=O)[C@H]1CC=C(CCC=C(C)C)C[C@@H]1c1ccccc1 (relative stereo)", 40),
    ("COc1cc(O)c(C(=O)[C@H]2CC=C(CCC=C(C)C)C[C@@H]2c2cccc(F)c2F)c(O)c1 (relative stereo)", 24.4),
    ("COc1cc(O)c(C(=O)[C@H]2CC=C(CCC=C(C)C)C[C@@H]2c2ccc(Cl)cc2)c(O)c1 (relative stereo)", 39.1),
    ("COc1cc(O)c(C(=O)[C@H]2CC=C(CCC=C(C)C)C[C@@H]2c2ccccc2)c(O)c1", 25.3),
]

Query: Consider the molecule CC(C)=CCCC1=CC[C@H](C(=O)c2c(O)cccc2O)[C@@H](c2ccc(F)cc2F)C1 (relative stereo) and give its measured IC50.
Response: 7.18

Query: Consider the molecule CC(C)=CCCC1=CC[C@H](C(=O)c2c(O)cccc2O)[C@@H](c2cccc(F)c2)C1 (relative stereo) and give its measured IC50.
Response: 16

Query: Consider the molecule COc1cc(O)c(C(=O)[C@H]2CC=C(CCC=C(C)C)C[C@@H]2c2cccc(F)c2)c(O)c1 (relative stereo) and give its measured IC50.
Response: 29.6

Query: Consider the molecule CC(C)=CCCC1=CC[C@H](C(=O)c2c(O)cccc2O)[C@@H](c2ccc(F)c(F)c2)C1 (relative stereo) and give its measured IC50.
Response: 11

Query: Consider the molecule CC(C)=CCCC1=CC[C@H](C(=O)c2c(O)cccc2O)[C@@H](c2ccccc2F)C1 (relative stereo) and give its measured IC50.
Response: 13.8

Query: Consider the molecule COc1cc(O)c(C(=O)[C@H]2CC=C(CCC=C(C)C)C[C@@H]2c2ccc(F)cc2F)c(O)c1 (relative stereo) and give its measured IC50.
Response: 21

Query: Consider the molecule CC(C)=CCCC1=CC[C@H](C(=O)c2c(O)cccc2O)[C@@H](c2cc(F)ccc2F)C1 (relative stereo) and give its measured IC50.
Response: 11.2

Query: Consider the molecule COc1cc(O)c(C(=O)[C@H]2CC=C(CCC=C(C)C)C[C@@H]2c2cc(F)cc(F)c2)c(O)c1 and give its measured IC50.
Response: 13.5

Query: Consider the molecule CC(C)=CCCC1=CC[C@H](C(=O)c2c(O)cccc2O)[C@@H](c2ccccc2)C1 (relative stereo) and give its measured IC50.
Response: 47.2

Query: Consider the molecule CC(C)=CCCC1=CC[C@H](C(=O)c2c(O)cccc2O)[C@@H](c2cccc(Cl)c2)C1 (relative stereo) and give its measured IC50.
Response: 14.8
